system: Clostridium sporogenes DSM 1664; assay: growth (OD595) fold change vs plate DMSO controls (fold change (ratio)); higher = more growth; conditions: 20 µM; incubation time: 27 h, anaerobic, 37 °C
Where a name gives a salt, the structure may show the parent alone.
Assign growth to each entry below.
Output spec: single numeric token, no unit.

Input line: Name the recorded growth for CCCN(CCC)N=O .
Output line: 0.977

Input line: Name the recorded growth for C=CC[C@]1(O)CC[C@H]2[C@@H]3CCC4=CCCC[C@@H]4[C@H]3CC[C@@]21C .
Output line: 1.01

Input line: Name the recorded growth for Nc1ccncc1 .
Output line: 0.947

Input line: Name the recorded growth for CC(C)OC(=O)C(C(=O)OC(C)C)=C1SCCS1 .
Output line: 1.07

Input line: Name the recorded growth for O=C(O)C(F)(F)C(F)(F)C(F)(F)C(F)(F)C(F)(F)C(F)(F)C(F)(F)C(F)(F)C(F)(F)F .
Output line: 1.11

Input line: Name the recorded growth for CC1(C)C(C=C(Cl)Cl)C1C(=O)OC(C#N)c1cccc(Oc2ccccc2)c1 (mixture of isomers) .
Output line: 1.13

Input line: Name the recorded growth for Cc1c(COC(=O)[C@@H]2[C@H](/C=C(\Cl)C(F)(F)F)C2(C)C)cccc1-c1ccccc1 (racemic) .
Output line: 1.05

Input line: Name the recorded growth for C[C@]12Cc3c[nH]nc3C[C@@H]1CC[C@@H]1[C@@H]2CC[C@@]2(C)[C@H]1CC[C@]2(C)O .
Output line: 1.18

Input line: Name the recorded growth for CCOP(=S)(OCC)Oc1nc(Cl)c(Cl)cc1Cl .
Output line: 1.13

Input line: Name the recorded growth for C[C@]12CCC(=O)C=C1C=C[C@@H]1[C@@H]2CC[C@@]2(C)[C@H]1CC[C@@]2(O)CCC(=O)O [Canrenoic acid potassium salt] .
Output line: 1.1

Input line: Name the recorded growth for O=C(O)COc1ccc(Cl)cc1Cl .
Output line: 0.956

Input line: Name the recorded growth for O=C(NC(=O)c1c(F)cccc1F)Nc1ccc(OC(F)(F)C(F)OC(F)(F)F)c(Cl)c1 (stereo unspecified) .
Output line: 0.972

Input line: Name the recorded growth for CC(NC(C)(C)C)C(=O)c1cccc(Cl)c1 (stereo unspecified) [Bupropion hydrochloride] .
Output line: 0.957

Input line: Name the recorded growth for CO/C=C(/C(=O)OC)c1ccccc1Oc1cc(Oc2ccccc2C#N)ncn1 .
Output line: 0.938

Input line: Name the recorded growth for Cc1cc(C)nc(Nc2ccccc2)n1 .
Output line: 0.995

Input line: Name the recorded growth for CNC(=O)c1cc(C#N)cc(C)c1NC(=O)c1cc(Br)nn1-c1ncccc1Cl .
Output line: 1.13

Input line: Name the recorded growth for CC(C)(C)NCC(O)c1ccccc1Cl (stereo unspecified) [Tulobuterol hydrochloride] .
Output line: 1.21

Input line: Name the recorded growth for C[CH2][Hg][S]c1ccccc1C(=O)[O-].[Na+] .
Output line: 0.878

Input line: Name the recorded growth for CC(C)(C)C(O)(CCc1ccc(Cl)cc1)Cn1cncn1 (stereo unspecified) .
Output line: 0.978

Input line: Name the recorded growth for C[N+]1(C)CCCC(OC(=O)C(O)(c2ccccc2)c2ccccc2)C1 (stereo unspecified) [Mepenzolate bromide] .
Output line: 0.917

Input line: Name the recorded growth for CCC(C)c1ccccc1OC(=O)NC (stereo unspecified) .
Output line: 1.06

Input line: Name the recorded growth for C1CCc2nnnn2CC1 .
Output line: 1.14

Input line: Name the recorded growth for O=S(=O)(c1ccc(O)cc1)c1ccc(O)cc1 .
Output line: 1.08

Input line: Name the recorded growth for CCCN(CCOc1c(Cl)cc(Cl)cc1Cl)C(=O)n1ccnc1 .
Output line: 1.07

Input line: Name the recorded growth for OC(Cc1ccccc1Cl)(Cn1nc[nH]c1=S)C1(Cl)CC1 (stereo unspecified) .
Output line: 0.971

Input line: Name the recorded growth for C#C[C@]1(O)C=C[C@H]2[C@@H]3CCC4=CC(=O)CC[C@@H]4[C@H]3CC[C@@]21CC .
Output line: 1.16

Input line: Name the recorded growth for N[C@@H]1C[C@H]1c1ccccc1 [Tranylcypromine hydrochloride] .
Output line: 1.05

Input line: Name the recorded growth for CC(Cc1ccccc1)NCCC(c1ccccc1)c1ccccc1 (stereo unspecified) [Prenylamine lactate] .
Output line: 1.01

Input line: Name the recorded growth for C[N+]1(C)[C@@H]2CC[C@H]1C[C@@H](OC(=O)C(CO)c1ccccc1)C2 (stereo partly specified) [Methylatropine nitrate] .
Output line: 0.875

Input line: Name the recorded growth for CCn1cc(C(=O)O)c(=O)c2cc3c(cc21)OCO3 .
Output line: 0

Input line: Name the recorded growth for CCC1(CC)C(=O)C=CNC1=O .
Output line: 0.889

Input line: Name the recorded growth for C=C(C)[C@@H]1[C@H]2OC(=O)[C@@H]1[C@]1(O)C[C@H]3O[C@]34C(=O)O[C@H]2[C@]14C .
Output line: 1

Input line: Name the recorded growth for CN1C(=O)COc2c(C(=O)NC3CN4CCC3CC4)cc(Cl)cc21 (stereo unspecified) [Azasetron hydrochloride] .
Output line: 0.734

Input line: Name the recorded growth for CC(=NC#N)N(C)Cc1ccc(Cl)nc1 .
Output line: 0.969

Input line: Name the recorded growth for c1ccc2c(c1)cc1ccc3cccc4ccc2c1c34 [Benzo[a]pyrene] .
Output line: 0.972

Input line: Name the recorded growth for CCc1nn(C)c(C(=O)NCc2ccc(Oc3ccc(C)cc3)cc2)c1Cl .
Output line: 0.969

Origin of values: the supplement of paper PMC12494721
